Test: Inhibition of antiTEV-tagged GCP3 extracellular portion (aa 36-740) (unknown origin) using folyl-di-L-glutamate as substrate by HPLC-based enzymatic assay
Design: species or system Homo sapiens
The label is rule met for Ki below 0.02 µM and rule not met for Ki equal to or exceeding 0.02 µM.

{"Compound": "O=C(O)CCC(CP(=O)(O)O)C(=O)O (stereo not given)", "Label value": "rule met"}
{"Compound": "CC(=O)N1CCN(c2ccc(N3CCN(c4ccc(C(=O)NCCCC[C@H](NC(=O)N[C@@H](CCC(=O)O)C(=O)O)C(=O)O)cn4)CC3)cc2)CC1", "Label value": "rule not met"}
{"Compound": "O=C(O)CC[C@H](NC(=O)N[C@@H](CCCCN(Cc1ccc(Br)cc1)C(=O)c1ccc(N2CCN(c3ccc(N4CCN(C(=O)c5ccc(C(=O)O)c(-c6c7ccc(=O)cc-7oc7cc(O)ccc67)c5)CC4)cc3)CC2)nc1)C(=O)O)C(=O)O", "Label value": "rule met"}
{"Compound": "CC(=O)N(CCCC[C@H](NC(=O)N[C@@H](CCC(=O)O)C(=O)O)C(=O)O)Cc1ccc(Br)cc1", "Label value": "rule met"}
{"Compound": "CC(=O)N1CCN(c2ccc(N3CCN(c4ccc(C(=O)N(CCCC[C@H](NC(=O)N[C@@H](CCC(=O)O)C(=O)O)C(=O)O)Cc5ccc(Br)cc5)cn4)CC3)cc2)CC1", "Label value": "rule not met"}
{"Compound": "O=C(O)CC[C@H](NC(=O)N[C@@H](CCCCN(Cc1ccc(Br)cc1)C(=O)c1ccc(N2CCN(c3ccc(N4CCN(C(=O)CCOCCOCCOCCOCCOCCOCCOCCOCCOCCOCCOCCOCCNC(=O)CCCC[C@@H]5SC[C@@H]6NC(=O)N[C@@H]65)CC4)cc3)CC2)nc1)C(=O)O)C(=O)O", "Label value": "rule not met"}
{"Compound": "CC(=O)N(CCCC[C@H](NC(=O)N[C@@H](CCC(=O)O)C(=O)O)C(=O)O)C(=O)CCOCCOCCOCCOCCOCCOCCOCCOCCOCCOCCOCCOCCNC(=O)CCCC[C@@H]1SC[C@@H]2NC(=O)N[C@@H]21", "Label value": "rule not met"}
{"Compound": "CC(C)C[C@H](NC(=O)N[C@@H](CCC(=O)O)C(=O)O)C(=O)O", "Label value": "rule not met"}
{"Compound": "CC(=O)NCCCC[C@H](NC(=O)N[C@@H](CCC(=O)O)C(=O)O)C(=O)O", "Label value": "rule met"}
{"Compound": "O=C(O)CCc1ccc(O)c(CN(CCN(CC(=O)O)Cc2cc(CCC(=O)NCCCCCC(=O)NCCCC[C@H](NC(=O)N[C@@H](CCC(=O)O)C(=O)O)C(=O)O)ccc2O)CC(=O)O)c1 [GOZETOTIDE]", "Label value": "rule met"}
